This collection of values is drawn from ChEMBL document CHEMBL1201862.

- Test system: SK-OV-3
- PROTOCOL DESCRIPTION: NCI tumour cell line growth inhibition, 48 h
Active and inactive are the calls of the source. Rule as the data show it: active = GI50 up to about 1.1 µM and inactive = higher.
// values below are reported GI50

- COMPOUND: "Nc1ccc2[nH]c3c(-c4ccccc4)nccc3c2c1"
  GI50: "54.2 µM (inactive)"
- COMPOUND: "CC(C)=CCN1c2ccccc2[C@@]2(CC=C(C)C)CCN(C)[C@@H]12 [(+)-DEBROMOFLUSTRAMINE B]"
  GI50: "24.4 µM (inactive)"
- COMPOUND: "COC(=O)C(=Cc1cc(OC)c(OC)c(OC)c1-c1cc2c(cc1C1(C)OCCS1)OCO2)C(=O)OC (stereo not given)"
  GI50: "38.3 µM (inactive)"
- COMPOUND: "Cc1sc2nc(N(C)C)oc(=O)c2c1C"
  GI50: "> 100 µM (inactive)"
- COMPOUND: "NNC(=S)N/N=C(/C(=O)Nc1ccc([N+](=O)[O-])cc1)c1nc2ccc([N+](=O)[O-])cc2nc1O"
  GI50: "> 100 µM (inactive)"

====

// values below are reported GI50
- Test system: Malme-3M
- PROTOCOL DESCRIPTION: NCI tumour cell line growth inhibition, 48 h
Calls of active or inactive are those of the source. No stated cut-off is given here; in the data, active = GI50 up to about 1.1 µM and inactive = higher.

- MOLECULE: "Nc1nc(Nc2ccc(Cl)cc2)sc1C(=O)c1c[nH]c2ccccc12"
  GI50: "16.4 µM (inactive)"
- MOLECULE: "CN(C)CCCCN1CCc2c(n(C)c3ccccc23)C1=O"
  GI50: "19.2 µM (inactive)"
- MOLECULE: "CC(C)(CN1C(=O)C(Cl)=C(Cl)C1=O)CN1C(=O)C(Cl)=C(Cl)C1=O"
  GI50: "5.74 µM (inactive)"
- MOLECULE: "CCCCc1c(O)nc(Nc2nc3ccccc3[nH]2)[nH]c1=O"
  GI50: "22.1 µM (inactive)"
- MOLECULE: "c1cncc(CNc2ncn[nH]2)c1"
  GI50: "> 100 µM (inactive)"
- MOLECULE: "CN(C)S(=O)(=O)c1ccc2c(c1)/C(=C1/Nc3ccccc3C1=O)C(=O)N2"
  GI50: "> 100 µM (inactive)"
- MOLECULE: "O=C(CC(C(=O)c1ccsc1)c1ccsc1)c1ccsc1 (configuration not stated)"
  GI50: "> 100 µM (inactive)"
- MOLECULE: "CSCSSC"
  GI50: "77.1 µM (inactive)"
- MOLECULE: "O=C(NNC(=O)c1c(Cl)c(Cl)c(Cl)c(Cl)c1-c1nc2ccccc2[nH]1)c1ccc(Cl)cc1"
  GI50: "89.3 µM (inactive)"
- MOLECULE: "Cn1ccnc1Sc1ccc(/C=N\\NC(=O)c2cccc(F)c2)cc1[N+](=O)[O-]"
  GI50: "> 100 µM (inactive)"
- MOLECULE: "COc1ccc(/C=C2\\C(=O)N(C(=O)Cc3ccccc3)N=C2C)cc1OC"
  GI50: "> 100 µM (inactive)"
- MOLECULE: "O=C(NNc1nc(-c2ccccc2)cs1)C(F)(F)F"
  GI50: "53.7 µM (inactive)"

====

- System: SF-295
- PROTOCOL DESCRIPTION: NCI tumour cell line growth inhibition, 48 h
Activity calls are given as the source filed them. No stated cut-off is given here; in the data, active = GI50 up to about 1.1 µM and inactive = higher.
// values below are reported GI50

- COMPOUND: "O=[PH]1c2ccccc2Nc2ccccc21"
  GI50: "> 100 µM (inactive)"
- COMPOUND: "CSc1nnc(CCC(=O)Nc2c(C)cccc2C)o1"
  GI50: "> 100 µM (inactive)"
- COMPOUND: "CCCCCC(=O)OC[n+]1cccc(-c2c(COC(=O)NC(C)C)c(COC(=O)NC(C)C)c3n2CCC3)c1"
  GI50: "59 µM (inactive)"
- COMPOUND: "CCN1CCC(O)(/C=C/c2ccc(Cl)c(Cl)c2)C(C(=O)/C=C/c2ccc(Cl)c(Cl)c2)C1 (stereo not given)"
  GI50: "0.713 µM (active)"
- COMPOUND: "CC(C)c1ccccc1NC(=O)C(=O)Cc1nc2ccccc2s1"
  GI50: "> 100 µM (inactive)"
- COMPOUND: "COc1cccc2c1C(=O)c1c(O)c3c(c(O)c1C2=O)C[C@@](O)(/C(C)=N/NC(=O)c1ccccc1)C[C@@H]3OC1CC(N)C(O)C(C)O1 (stereo not given in full)"
  GI50: "0.195 µM (active)"
- COMPOUND: "CC/C(Cl)=N\\OC(=O)Nc1ccccc1OC(F)(F)F"
  GI50: "17.2 µM (inactive)"
- COMPOUND: "CC[S+]([O-])C(=O)N(O)c1ccc(Cl)cc1 (stereo not given)"
  GI50: "85.7 µM (inactive)"
- COMPOUND: "Cc1ccccc1NC(=O)Cc1csc2[n+]1C(=O)/C(=C/c1ccc([N+](=O)[O-])cc1)S2"
  GI50: "31.8 µM (inactive)"
- COMPOUND: "O=C(Nc1ccc2ccccc2c1)c1cc2cc(CCl)ccc2oc1=O"
  GI50: "33.3 µM (inactive)"
